Biological target: UniProtKB O00337
Assay: inhibition of hCNT1b-mediated influx of [3H]uridine in Xenopus oocytes
Assay type: cell-based
Settings: uridine 10 μM, competitor 1 mM (FIG. 12B)
result-type: inhibition of uridine fluxes, hCNT1b

[[record]]
molecule = "O=c1ccn([C@@H]2O[C@H](CO)[C@@H](O)[C@H]2O)c(=O)[nH]1 [uridine]"
recorded_value = "inhibited"

[[record]]
molecule = "Nc1ccn([C@@H]2O[C@H](CO)[C@@H](O)[C@H]2O)c(=O)n1 [cytidine]"
recorded_value = "inhibited"

[[record]]
molecule = "Nc1ncnc2c1ncn2[C@@H]1O[C@H](CO)[C@@H](O)[C@H]1O [adenosine]"
recorded_value = "inhibited"

[[record]]
molecule = "Nc1nc2c(ncn2[C@@H]2O[C@H](CO)[C@@H](O)[C@H]2O)c(=O)[nH]1 [guanosine]"
recorded_value = "not"

[[record]]
molecule = "Cc1cn([C@H]2C[C@H](O)[C@@H](CO)O2)c(=O)[nH]c1=O [thymidine]"
recorded_value = "inhibited"

[[record]]
molecule = "OC[C@H]1O[C@@H](n2cnc3c(O)ncnc32)[C@H](O)[C@@H]1O [inosine]"
recorded_value = "not"


###

Molecular target: UniProtKB O00337
Assay: inhibition of hCNT1a-mediated influx of [3H]uridine in Xenopus oocytes
Settings: uridine 10 μM, competitor 1 mM (FIG. 12A); guanosine also in FIG. 13
result-type: inhibition of uridine fluxes, hCNT1a

[[record]]
mol_smiles = "Cc1cn([C@H]2C[C@H](O)[C@@H](CO)O2)c(=O)[nH]c1=O"
recorded_value = "inhibited"

[[record]]
mol_smiles = "O=c1ccn([C@@H]2O[C@H](CO)[C@@H](O)[C@H]2O)c(=O)[nH]1"
recorded_value = "inhibited"

[[record]]
mol_smiles = "Nc1ncnc2c1ncn2[C@@H]1O[C@H](CO)[C@@H](O)[C@H]1O"
recorded_value = "inhibited"

[[record]]
mol_smiles = "OC[C@H]1O[C@@H](n2cnc3c(O)ncnc32)[C@H](O)[C@@H]1O"
recorded_value = "not"

[[record]]
mol_smiles = "Nc1ccn([C@@H]2O[C@H](CO)[C@@H](O)[C@H]2O)c(=O)n1"
recorded_value = "inhibited"


###

Target: CNT1 (Rattus norvegicus)
Sequence (Q62674 whole entry): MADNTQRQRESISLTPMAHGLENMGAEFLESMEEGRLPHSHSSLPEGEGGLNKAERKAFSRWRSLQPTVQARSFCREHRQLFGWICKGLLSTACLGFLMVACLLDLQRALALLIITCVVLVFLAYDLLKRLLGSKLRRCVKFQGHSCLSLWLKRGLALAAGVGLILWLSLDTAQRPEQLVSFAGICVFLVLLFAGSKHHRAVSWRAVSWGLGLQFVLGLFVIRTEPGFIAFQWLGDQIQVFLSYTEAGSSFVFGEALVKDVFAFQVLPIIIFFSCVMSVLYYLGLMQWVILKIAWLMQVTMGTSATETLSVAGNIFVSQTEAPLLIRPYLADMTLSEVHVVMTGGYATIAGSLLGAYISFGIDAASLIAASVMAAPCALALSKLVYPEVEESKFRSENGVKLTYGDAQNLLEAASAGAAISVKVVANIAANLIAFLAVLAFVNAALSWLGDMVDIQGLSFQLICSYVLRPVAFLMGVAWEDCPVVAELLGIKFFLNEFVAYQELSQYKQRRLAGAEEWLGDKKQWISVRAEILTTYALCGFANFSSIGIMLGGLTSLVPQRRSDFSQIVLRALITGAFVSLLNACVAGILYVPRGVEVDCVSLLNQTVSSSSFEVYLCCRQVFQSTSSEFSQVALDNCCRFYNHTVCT
Test: inhibition of CNT1-mediated nucleoside (uridine, AZT, ddC) transport in Xenopus oocytes
Format: cell-based
Conditions: adenosine, thymidine, cytidine, uridine>>guanosine, inosine
result-type: selective inhibition of uridine and thymidine fluxes (rCNT1)

[[record]]
compound = "OC[C@H]1O[C@@H](n2cnc3c(O)ncnc32)[C@H](O)[C@@H]1O [inosine]"
recorded_value = ">>guanosine, inosine"

[[record]]
compound = "Nc1ccn([C@@H]2O[C@H](CO)[C@@H](O)[C@H]2O)c(=O)n1 [cytidine]"
recorded_value = "selective inhibition"

[[record]]
compound = "Nc1ncnc2c1ncn2[C@@H]1O[C@H](CO)[C@@H](O)[C@H]1O [adenosine]"
recorded_value = "selective inhibition"

[[record]]
compound = "Cc1cn([C@H]2C[C@H](O)[C@@H](CO)O2)c(=O)[nH]c1=O [thymidine]"
recorded_value = "selective inhibition"

[[record]]
compound = "Nc1nc2c(ncn2[C@@H]2O[C@H](CO)[C@@H](O)[C@H]2O)c(=O)[nH]1 [guanosine]"
recorded_value = ">>guanosine, inosine"


###

Molecular target: hCNT1a (Homo sapiens)
Sequence (O00337 with tags, fused parts or gaps E34G/INS140V): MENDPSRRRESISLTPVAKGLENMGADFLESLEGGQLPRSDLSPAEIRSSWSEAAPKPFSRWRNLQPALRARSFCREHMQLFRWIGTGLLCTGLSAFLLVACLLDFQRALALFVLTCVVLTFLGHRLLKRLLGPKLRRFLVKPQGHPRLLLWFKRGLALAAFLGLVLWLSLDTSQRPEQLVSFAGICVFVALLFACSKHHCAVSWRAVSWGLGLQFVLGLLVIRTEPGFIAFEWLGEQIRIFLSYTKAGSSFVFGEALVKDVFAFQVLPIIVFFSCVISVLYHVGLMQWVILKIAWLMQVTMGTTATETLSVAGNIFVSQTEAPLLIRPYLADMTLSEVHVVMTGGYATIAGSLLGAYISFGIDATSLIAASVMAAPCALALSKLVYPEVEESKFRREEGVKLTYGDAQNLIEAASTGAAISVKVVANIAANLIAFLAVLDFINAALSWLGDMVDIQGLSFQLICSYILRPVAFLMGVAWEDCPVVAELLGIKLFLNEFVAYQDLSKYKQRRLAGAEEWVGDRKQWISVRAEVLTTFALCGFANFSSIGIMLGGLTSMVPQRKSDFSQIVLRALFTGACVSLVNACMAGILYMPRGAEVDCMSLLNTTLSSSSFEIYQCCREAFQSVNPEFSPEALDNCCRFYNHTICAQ
Assay: cell-based
pKi: −log10 of the molar value.
result-type: pKi

[[record]]
mol_smiles = "Nc1ncnc2c1ncn2[C@H]1C[C@H](O)[C@@H](CO)O1"
result_type = "pKi"
recorded_value = 4.34

